Where these numbers come from: paper PMC3242765

# System: SFV-Rluc
# Run parameters: primary screening of chemical libraries; compounds tested at 50 µM
Property: SFV replication % left (%)
A number alone suffices; assume %.

// sample CC(=O)CC(c1ccccc1)c1c(O)c2ccccc2oc1=O (stereo not shown) , its SFV replication % left was 79.5

// sample Cc1ccc2oc(=O)ccc2c1 , its SFV replication % left was 83.6

// sample O=c1ccc2cc(O)c(O)cc2o1 , its SFV replication % left was 103.6

// sample O=c1ccc2ccc(O)c(O)c2o1 [NC-112] , its SFV replication % left was 90.6

// sample CCC(NC(C)C)C(O)c1ccc(O)c(O)c1 (stereo not shown) , its SFV replication % left was 90.7

// sample CNC(C)(C)Cc1ccccc1.CNC(C)(C)Cc1ccccc1.O=S(=O)(O)O , its SFV replication % left was 81.8

// sample COC(=O)c1ccc(O)cc1 , its SFV replication % left was 69.3

// sample O=c1c(O)c(-c2ccc(O)c(O)c2)oc2c(O[C@@H]3O[C@H](CO)[C@@H](O)[C@H](O)[C@H]3O)c(O)cc(O)c12 , its SFV replication % left was 105.8

// sample O=c1oc2c(O)c(O)cc3c(=O)oc4c(O)c(O)cc1c4c23 , its SFV replication % left was 64.9

// sample O=C(O)c1ccccc1 , its SFV replication % left was 71.6

// sample O=c1oc2ccccc2c(O)c1Cc1c(O)c2ccccc2oc1=O , its SFV replication % left was 65.6

// sample NS(=O)(=O)c1cc2c(cc1Cl)NCNS2(=O)=O , its SFV replication % left was 121.2

// sample Oc1cc(O)c2c(c1)O[C@H](c1ccc(O)c(O)c1)[C@H](O)[C@H]2c1c(O)cc(O)c2c1O[C@H](c1ccc(O)c(O)c1)[C@@H](O)C2 , its SFV replication % left was 128.1

// sample CCCCCCCCOC(=O)c1cc(O)c(O)c(O)c1 , its SFV replication % left was 134.4

// sample O=c1ccc2ccc(O)cc2o1 [NC-115] , its SFV replication % left was 78.4

// sample COc1cc2oc(=O)ccc2cc1O , its SFV replication % left was 120.6

// sample COc1ccc2c(C)cc(=O)oc2c1 , its SFV replication % left was 72.2

// sample O=C(O)c1ccc(O)c(O)c1 [NC-026] , its SFV replication % left was 124.5

// sample O=C1Nc2ccc(Cl)cc2C(c2ccccc2Cl)=NC1O (stereo not shown) , its SFV replication % left was 98.2

// sample O.O.O=c1c(O)c(-c2ccc(O)cc2O)oc2cc(O)cc(O)c12 , its SFV replication % left was 82.9

// sample Cc1ccc(C(C)C)c(O)c1 , its SFV replication % left was 42.0

// sample Oc1cc(O)c2c(c1)O[C@H](c1ccc(O)c(O)c1)[C@@H](O)C2 , its SFV replication % left was 64.5

// sample O=C1NC(=O)C(c2ccccc2)(c2ccccc2)N1 , its SFV replication % left was 66.3

// sample COc1cc2ccc(=O)oc2c(O)c1O , its SFV replication % left was 103.6

// sample O=c1cc(-c2ccc(O)c(O)c2)oc2cc(O[C@@H]3O[C@H](CO)[C@@H](O)[C@H](O)[C@H]3O)cc(O)c12 , its SFV replication % left was 17.8

// sample O=C1CC(=O)NC(=O)N1 , its SFV replication % left was 48.8

// sample O=C(O)Cc1ccc(O)cc1 , its SFV replication % left was 103.6

// sample O=C1O[C@H]([C@@H](O)CO)C(O)=C1O , its SFV replication % left was 81.4

// sample CC(=O)c1cccc(O)c1 , its SFV replication % left was 125.8

// sample CCCCCCCCCCCCOC(=O)c1cc(O)c(O)c(O)c1 , its SFV replication % left was 12.3

// sample C[N+]1(C)[C@@H]2CC[C@H]1C[C@@H](OC(=O)C(CO)c1ccccc1)C2.[Br-] (stereo partly shown) , its SFV replication % left was 70.9

// sample C[C@]12CC[C@H](O)C[C@H]1CC[C@@H]1[C@@H]2CC[C@]2(C)[C@@H](C3=CC(=O)OC3)[C@@H](O)C[C@]12O , its SFV replication % left was 102.7

// sample Cc1c(N(C)CS(=O)(=O)[O-])c(=O)n(-c2ccccc2)n1C.[Na+] , its SFV replication % left was 86.0

// sample CN1CCN=C(c2ccccc2)c2cc(Cl)ccc21 , its SFV replication % left was 87.5

// sample CC[C@@]1(O)C(=O)OCc2c1cc1n(c2=O)Cc2cc3ccccc3nc2-1 , its SFV replication % left was 87.7

// sample OCCN1CCN(CCCN2c3ccccc3C=Cc3ccccc32)CC1 , its SFV replication % left was 27.5

// sample COc1cc(-c2oc3cc(O)cc(O)c3c(=O)c2O)ccc1O , its SFV replication % left was 28.9

// sample Cc1cc(C(C)(C)C)c(O)c(C(C)(C)C)c1 , its SFV replication % left was 72.6

// sample NC(=O)N/N=C/c1ccc([N+](=O)[O-])o1 , its SFV replication % left was 83.7

// sample Cc1cc(=O)oc2cc(O)ccc12 [NC-065] , its SFV replication % left was 12.0

// sample Cc1cc(=O)oc2c3c4c(cc12)CCCN4CCC3 , its SFV replication % left was 34.6

// sample CCCOC(=O)c1cc(O)c(O)c(O)c1 , its SFV replication % left was 33.6

// sample COc1cc(O)c2c(=O)c(OC)c(-c3ccc(OC)c(OC)c3)oc2c1 , its SFV replication % left was 65.0
